Biological target: FGFR3 (UniProt P22607)
Sequence (P22607 whole entry, looked up): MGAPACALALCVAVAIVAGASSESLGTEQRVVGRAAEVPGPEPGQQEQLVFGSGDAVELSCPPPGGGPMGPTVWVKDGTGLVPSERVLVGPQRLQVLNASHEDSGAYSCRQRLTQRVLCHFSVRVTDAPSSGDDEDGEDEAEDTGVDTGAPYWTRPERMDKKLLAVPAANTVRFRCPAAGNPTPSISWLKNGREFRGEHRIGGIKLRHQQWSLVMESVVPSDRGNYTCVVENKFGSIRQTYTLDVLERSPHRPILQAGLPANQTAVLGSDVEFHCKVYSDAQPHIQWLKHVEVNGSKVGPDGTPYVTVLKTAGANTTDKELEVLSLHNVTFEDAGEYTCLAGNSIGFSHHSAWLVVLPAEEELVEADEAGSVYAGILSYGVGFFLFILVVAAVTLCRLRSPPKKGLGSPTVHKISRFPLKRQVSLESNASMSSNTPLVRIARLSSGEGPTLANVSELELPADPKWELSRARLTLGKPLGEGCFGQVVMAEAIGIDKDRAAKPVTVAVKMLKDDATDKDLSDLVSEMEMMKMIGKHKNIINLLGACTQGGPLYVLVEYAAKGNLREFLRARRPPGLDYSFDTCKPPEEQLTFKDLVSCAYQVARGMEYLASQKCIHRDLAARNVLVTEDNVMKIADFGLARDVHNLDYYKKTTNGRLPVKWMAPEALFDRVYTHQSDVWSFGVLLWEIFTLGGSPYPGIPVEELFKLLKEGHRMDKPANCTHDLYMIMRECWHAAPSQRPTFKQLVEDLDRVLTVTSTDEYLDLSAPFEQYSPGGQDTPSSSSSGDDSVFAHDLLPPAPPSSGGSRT
Assay: phosphorylation enrichment, bacterial display (enrichment ratio); higher = better substrate or ligand; peptides without Tyr show the background
Would you please tag the item 1.0 when its phosphorylation enrichment is 0.8 or above, and 0.0 when it is below?

Some solved entries appear below for comparison.
APGDAYGDAGF [SYP_Y250_YF] = 0.0
DRLASYPDKVR [KRT14_Y129_L130P] = 0.0
ASPKSYPSQKH [CAP2_Y316_T311A] = 0.0
SPFMLYQFLKQ [RPAP3_Y567_D564Y_YF] = 1.0
QFLMKYVRSAS [ABCD1_Y337_W339R] = 1.0

From here, focus on the item given below.
IN: phosphorylation enrichment >= 0.8 for RTLSEYARPHV [RERE_Y1259] ?
OUT: 0.0

----------
Biological target: EPHB2 (UniProt P29323)
Sequence (P29323 whole entry, looked up): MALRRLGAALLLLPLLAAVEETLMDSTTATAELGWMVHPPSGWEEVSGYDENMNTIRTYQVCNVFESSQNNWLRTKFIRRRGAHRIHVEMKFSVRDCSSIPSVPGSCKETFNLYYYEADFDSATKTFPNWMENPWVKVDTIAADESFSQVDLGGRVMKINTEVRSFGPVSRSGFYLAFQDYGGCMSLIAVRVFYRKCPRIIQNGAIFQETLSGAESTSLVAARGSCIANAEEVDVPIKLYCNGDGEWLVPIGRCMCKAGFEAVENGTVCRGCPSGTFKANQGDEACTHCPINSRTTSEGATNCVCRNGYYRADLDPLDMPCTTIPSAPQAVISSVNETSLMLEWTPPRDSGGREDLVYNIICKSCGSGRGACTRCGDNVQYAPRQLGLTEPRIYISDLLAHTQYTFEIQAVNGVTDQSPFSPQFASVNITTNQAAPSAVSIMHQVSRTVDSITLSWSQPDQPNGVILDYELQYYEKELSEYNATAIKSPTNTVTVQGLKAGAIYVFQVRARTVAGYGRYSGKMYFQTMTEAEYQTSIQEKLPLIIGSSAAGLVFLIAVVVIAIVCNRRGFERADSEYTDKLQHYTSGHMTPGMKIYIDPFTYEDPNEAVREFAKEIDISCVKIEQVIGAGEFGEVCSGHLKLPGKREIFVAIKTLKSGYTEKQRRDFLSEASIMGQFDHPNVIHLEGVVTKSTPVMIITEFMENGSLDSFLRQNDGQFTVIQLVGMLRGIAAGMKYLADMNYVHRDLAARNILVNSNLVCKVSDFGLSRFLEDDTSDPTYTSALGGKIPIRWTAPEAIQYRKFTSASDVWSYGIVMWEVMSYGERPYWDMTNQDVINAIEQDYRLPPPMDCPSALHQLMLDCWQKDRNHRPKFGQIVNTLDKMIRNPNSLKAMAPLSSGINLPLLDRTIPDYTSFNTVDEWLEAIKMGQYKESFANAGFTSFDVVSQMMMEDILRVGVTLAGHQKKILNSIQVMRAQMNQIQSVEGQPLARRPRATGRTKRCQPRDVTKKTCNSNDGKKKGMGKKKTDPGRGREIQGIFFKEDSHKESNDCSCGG
Assay: phosphorylation enrichment, bacterial display (enrichment ratio); higher = better substrate or ligand; peptides without Tyr show the background
Parameter: phosphorylation enrichment. Scope: all listed entries.

Example entries begin here.
DRLASNLDKVR [KRT10_Y160_Y160N] = 0.307
LYVDVYGPSVP [NUBPL_Y109_D105Y] = 1.09
RESSGYLRLAF [MEP1A_Y481] = 1.21
AADGRYEVLFL [SEMA3F_Y478] = 0.683
EKKKFYDTKIE [CASP5_Y104_YF] = 0.397

IN: Bench note: what phosphorylation enrichment did LHSDHYSPSGR [TMPRSS12_Y23_Y19H] show?
OUT: 0.672

IN: Bench note: what phosphorylation enrichment did PRPAGYPSMVS [CACNA1C_Y1832_T1835M] show?
OUT: 0.561

IN: Bench note: what phosphorylation enrichment did MSRDVYSTDCF [NTRK2_Y702_Y706C_YF] show?
OUT: 0.675

IN: Bench note: what phosphorylation enrichment did SVVVPYEPTEV [TP53_Y220_P223T] show?
OUT: 0.765

IN: Bench note: what phosphorylation enrichment did DAKAIYDFTDT [PDK1_Y136] show?
OUT: 1.85

----------
Molecular target: Jak2 (UniProt O60674)
Sequence (O60674 whole entry, looked up): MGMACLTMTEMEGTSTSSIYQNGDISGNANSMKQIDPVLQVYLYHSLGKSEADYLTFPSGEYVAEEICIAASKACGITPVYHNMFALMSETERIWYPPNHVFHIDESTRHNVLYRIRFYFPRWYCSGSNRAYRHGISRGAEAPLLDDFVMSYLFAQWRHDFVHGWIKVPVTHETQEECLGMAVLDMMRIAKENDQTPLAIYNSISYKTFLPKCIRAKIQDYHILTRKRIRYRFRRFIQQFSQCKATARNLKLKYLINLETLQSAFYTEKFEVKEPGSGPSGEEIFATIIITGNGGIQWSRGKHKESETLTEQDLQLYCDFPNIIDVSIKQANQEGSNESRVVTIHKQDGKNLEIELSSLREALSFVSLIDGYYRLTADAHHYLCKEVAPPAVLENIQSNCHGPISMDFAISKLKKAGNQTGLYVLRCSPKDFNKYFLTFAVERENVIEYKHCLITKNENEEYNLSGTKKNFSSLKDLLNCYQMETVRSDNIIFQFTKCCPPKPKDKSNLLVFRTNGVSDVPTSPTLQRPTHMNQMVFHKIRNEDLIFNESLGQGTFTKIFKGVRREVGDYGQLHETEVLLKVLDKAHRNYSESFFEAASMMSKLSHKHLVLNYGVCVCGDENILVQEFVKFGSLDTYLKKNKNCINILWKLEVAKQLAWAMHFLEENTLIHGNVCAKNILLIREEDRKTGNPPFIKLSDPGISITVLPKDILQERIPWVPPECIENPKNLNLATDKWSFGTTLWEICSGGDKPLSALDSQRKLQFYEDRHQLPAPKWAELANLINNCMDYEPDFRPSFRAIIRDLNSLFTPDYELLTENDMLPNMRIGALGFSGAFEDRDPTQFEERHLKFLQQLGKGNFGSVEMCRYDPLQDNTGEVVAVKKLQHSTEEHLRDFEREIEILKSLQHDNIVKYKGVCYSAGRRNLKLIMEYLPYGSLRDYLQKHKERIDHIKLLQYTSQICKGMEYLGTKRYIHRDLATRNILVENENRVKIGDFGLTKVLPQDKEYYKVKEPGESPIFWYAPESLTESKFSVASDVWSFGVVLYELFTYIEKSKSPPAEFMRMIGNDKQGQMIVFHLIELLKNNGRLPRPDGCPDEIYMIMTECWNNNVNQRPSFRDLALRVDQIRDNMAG
Test: phosphorylation enrichment, bacterial display (enrichment ratio); higher = better substrate or ligand; peptides without Tyr show the background
Parameter: phosphorylation enrichment. Scope: all listed entries.
Please reply with the number alone, leaving off any unit.

Example entries begin here.
IKETHYMVDRC = 0.654
KRIETYFSKNF [PLP1_Y50_L46R_YF] = 0.723
RSFLSYYTSHV [NEFL_Y442_P440L] = 1.71
ANVIRYFPTQA [SLC25A4_Y81] = 0.61
LKKLEYLNLAL [LRRC6_Y70] = 1.23

IN: Bench note: what phosphorylation enrichment did AKGMKYLASKK [MET_Y1194] show?
OUT: 0.489

IN: Bench note: what phosphorylation enrichment did FRGFSYDDIPD [TMEM230_Y112_YF] show?
OUT: 1.39

IN: Bench note: what phosphorylation enrichment did SGVSFYINLCQ [IGF2R_Y2025_N2020S_YF] show?
OUT: 1.61

IN: Bench note: what phosphorylation enrichment did SRLSAYPALEG [CD5_Y465_H461R] show?
OUT: 0.674

----------
Target: FGFR3 (UniProt P22607)
Assay: phosphorylation enrichment, bacterial display (enrichment ratio); higher = better substrate or ligand; peptides without Tyr show the background
result-type: phosphorylation enrichment
Please reply with the number alone, leaving off any unit.

IN: Given the entry MDDKEYFSVHN [MET_Y1234_Y1230D_YF] , what phosphorylation enrichment was observed with FGFR3 (UniProt P22607)?
OUT: 0.919

IN: Given the entry RTESQYQENRG [LRCH3_Y354_R350T] , what phosphorylation enrichment was observed with FGFR3 (UniProt P22607)?
OUT: 0.591

IN: Given the entry AALVQYFMEHH [PTPN11_Y80_E76A_YF] , what phosphorylation enrichment was observed with FGFR3 (UniProt P22607)?
OUT: 0.727

IN: Given the entry SRLSAYPALEG [CD5_Y465_H461R] , what phosphorylation enrichment was observed with FGFR3 (UniProt P22607)?
OUT: 0.469

IN: Given the entry SDFSSYARTSI [TERT_Y949_YF] , what phosphorylation enrichment was observed with FGFR3 (UniProt P22607)?
OUT: 0.613

IN: Given the entry CTNIHYNFMCN [TP53_Y234_T231N_YF] , what phosphorylation enrichment was observed with FGFR3 (UniProt P22607)?
OUT: 0.714

----------
Biological target: c-Src SH2
Experiment: SH2 binding enrichment of the phosphorylated peptide, bacterial display (enrichment ratio); higher = better substrate or ligand; peptides without Tyr show the background
result-type: SH2 binding enrichment
Please reply with the number alone, leaving off any unit.

Example entries begin here.
PEVRRYVLPLN [RPE65_Y368] = 0.878
KRLDGYVLEGR [IGSF9_Y656] = 0.856
AKLDIYKRKVE [VWA3B_Y918_N916D] = 0.45
VTSLKYSTPPY [BRIP1_Y916_S919P] = 0.434
LKKLEYLNLAL [LRRC6_Y70] = 0.424
INPIIYAFVVE [CCR5_Y297_G301V] = 0.402
LNPDGYEKAYE [CPXM2_Y427] = 4.86
MKGDYYRYLAE [YWHAG_Y131] = 0.615

IN: Bench note: what SH2 binding enrichment did GHGEEYPVAGA [NOTCH3_Y2221_A2223V] show?
OUT: 0.413

IN: Bench note: what SH2 binding enrichment did DVFLKYLNFAT [PDE6B_Y212] show?
OUT: 0.935

IN: Bench note: what SH2 binding enrichment did ATDLAYYLVRE [ASL_Y375_K380E] show?
OUT: 1.58

IN: Bench note: what SH2 binding enrichment did DRLASYPDKVR [KRT14_Y129_L130P] show?
OUT: 0.461

IN: Bench note: what SH2 binding enrichment did ILGTFYETGSI [PAX2_Y73_R71T_YF] show?
OUT: 0.619

IN: Bench note: what SH2 binding enrichment did KTTGGYAGGLS [KRT8_Y419_S417G] show?
OUT: 0.416

IN: Bench note: what SH2 binding enrichment did KLVQLYDVCTK [BTK_Y461_G462D] show?
OUT: 0.881

IN: Bench note: what SH2 binding enrichment did LNAGAYSKVVE [PPT1_Y172_Q177E] show?
OUT: 2.03

IN: Bench note: what SH2 binding enrichment did ENFDDYMKDVG [FABP4_Y20_E23D] show?
OUT: 0.428

IN: Bench note: what SH2 binding enrichment did NNPAFYVLEGV [INPPL1_Y987_YF] show?
OUT: 0.682

----------
Molecular target: Grb2 SH2 (UniProt P62993)
Sequence (P62993 whole entry, looked up): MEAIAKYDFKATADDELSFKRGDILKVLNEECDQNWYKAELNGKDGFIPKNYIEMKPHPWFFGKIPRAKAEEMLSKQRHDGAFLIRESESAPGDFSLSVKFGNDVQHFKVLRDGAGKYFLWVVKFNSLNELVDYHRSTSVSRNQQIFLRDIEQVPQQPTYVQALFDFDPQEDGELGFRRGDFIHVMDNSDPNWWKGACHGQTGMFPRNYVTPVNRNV
Assay: SH2 binding enrichment of the phosphorylated peptide, bacterial display (enrichment ratio); higher = better substrate or ligand; peptides without Tyr show the background
Would you please tag the item YES when its SH2 binding enrichment is 1 or above, and NO when it is below?

Some solved entries appear below for comparison.
IHSGIYYKPES [L2HGDH_Y102] = NO
EVESPYEVHDF [GIGYF2_Y1168_YF] = NO
VRTSKYRGGGG [HBA1_Y141_L137R] = NO
LVGTPYWMAPE [PAK5_Y608] = NO
NFATLHLKIFH [PDE6B_Y219_Y219H_YF] = YES

IN: SH2 binding enrichment >= 1 for FEGHSYSACTT [MMP9_Y241_R239H] ?
OUT: NO

IN: SH2 binding enrichment >= 1 for LYSNAYLNDLA [ALDH1A1_Y119] ?
OUT: YES

IN: SH2 binding enrichment >= 1 for HLTLVYGGIFL [FBP1_Y259_R255L] ?
OUT: NO

IN: SH2 binding enrichment >= 1 for IRKDLYANNVL [ACTA2_Y296] ?
OUT: YES

IN: SH2 binding enrichment >= 1 for METKGYHSLPE [NR3C2_Y6] ?
OUT: NO

----------
Target: EPHB2 (UniProt P29323)
Experiment: phosphorylation enrichment, bacterial display (enrichment ratio); higher = better substrate or ligand; peptides without Tyr show the background
Parameter: phosphorylation enrichment. Scope: all listed entries.
Please reply with the number alone, leaving off any unit.

Example entries begin here.
DISEPYKVYRI [IRF8_Y107] = 0.517
PPGRSYSPCDF [TNS1_Y793_Y796C_YF] = 0.858
AALVQYFMEHH [PTPN11_Y80_E76A_YF] = 0.541
TTIVSYRASQP [MKI67_Y1737_K1734I] = 0.305
MSNFACVKREV [SCN1A_Y1694_Y1694C] = 0.45
RARIRYAQEHD [NSD1_Y1987] = 1.19

Turning now to a further sequence:
IN: Given the entry ARMTNYGLPRF [TSPAN12_Y138_YF] , what phosphorylation enrichment was observed with EPHB2 (UniProt P29323)?
OUT: 0.542
